Below are Ki values recorded for UniProt:A3EZJ3.
Sequence (A3EZJ3 whole entry): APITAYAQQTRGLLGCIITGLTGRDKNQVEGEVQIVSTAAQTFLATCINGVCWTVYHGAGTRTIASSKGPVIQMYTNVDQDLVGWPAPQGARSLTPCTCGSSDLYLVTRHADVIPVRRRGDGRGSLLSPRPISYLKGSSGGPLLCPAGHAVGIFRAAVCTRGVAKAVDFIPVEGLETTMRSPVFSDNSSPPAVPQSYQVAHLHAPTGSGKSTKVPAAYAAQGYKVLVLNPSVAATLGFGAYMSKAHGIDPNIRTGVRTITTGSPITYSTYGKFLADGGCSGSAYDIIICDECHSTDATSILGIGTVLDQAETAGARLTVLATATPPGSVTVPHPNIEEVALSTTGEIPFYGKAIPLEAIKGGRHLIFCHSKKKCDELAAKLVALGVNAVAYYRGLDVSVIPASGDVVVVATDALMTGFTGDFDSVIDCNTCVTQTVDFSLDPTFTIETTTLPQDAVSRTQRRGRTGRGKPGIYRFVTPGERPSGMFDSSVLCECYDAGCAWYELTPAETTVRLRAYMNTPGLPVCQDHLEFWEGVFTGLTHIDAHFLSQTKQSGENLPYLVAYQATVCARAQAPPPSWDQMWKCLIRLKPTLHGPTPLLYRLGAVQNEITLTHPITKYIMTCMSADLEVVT
Give bare numbers, in µM.

C=CCOC(=O)CNC(=O)C(=O)[C@H](CCC)NC(=O)[C@@H]1CN(Cc2ccc(Cl)c(Cl)c2)C(=O)N1C(=O)[C@@H](NC(=O)[C@@H](NC(=O)[C@H](CCC(=O)O)NC(=O)[C@H](CCC(=O)O)NC(C)=O)C(C)C)C(C)C; 0.31
C=CCNC(=O)C(=O)[C@H](CCC)NC(=O)[C@@H]1CN(CC(=O)OCC)C(=O)N1C(=O)[C@@H](NC(=O)[C@@H](NC(=O)[C@H](CCC(=O)O)NC(=O)[C@H](CCC(=O)O)NC(C)=O)C(C)C)C(C)C; 4

# input for lookup
Ask: Which Ki is reported for this molecule? C=CCNC(=O)C(=O)[C@H](CCC)NC(=O)[C@@H]1CN(Cc2ccccc2)C(=O)N1C(=O)[C@@H](NC(=O)[C@@H](NC(=O)[C@H](CCC(=O)OC(C)(C)C)NC(=O)[C@H](CCC(=O)OC(C)(C)C)NC(C)=O)C(C)C)C(C)C
Result: 61
